Tested on: MS2 coat protein
Experiment: apparent KD of MS2 coat protein; higher = weaker reporter binding
Settings: Eterna round: R107; input ligand: tryptophan 2.4 mM
Kind request: treat 30 nM as inclusive, so apparent KD of MS2 coat protein at 30 nM or higher is Yes, anything lower is No.

Data request: Could you tell me if the measured apparent KD of MS2 coat protein of GGGCCCGGGCGCGAGCCCGGGCCCAUUGAUACCAGUGAUAGAGAGCGCCCUUGGCAGCGAAUCCUAACAUGAGGAUCACCCAUGU [5.K] reaches 30 nM or more?
Data returned: Yes

Data request: Quick one: UUGGGUAUGCGAAGGAGCGGGAAAUAUAUAUAUAUAAUCCUAACAUGAGGAUCACCCAUGUCCCAGGUAGGUCGCGCAUGUUUGG [12.K]
Data returned: Yes

Data request: Quick one: UCGUUUGAGGCGGCCGCCACUGGUCUCAUGGUCAACAUGAGGAUCACCCAUGUAUCUUAGUUAAGCAGGACCGGGCCUCGAGCGA [#18 Exclusion Tryptophan B]
Data returned: Yes

Others:
Data request: Could you tell me if the measured apparent KD of MS2 coat protein of CCCAAUUAGAUCUUUGGAAUUUUACUCGAAGGAGCGUCAUAGUAGGCAGGUAGGUCGCGAGACAUGAGGAUCACCCAUGUAGAGA [btbmullin] reaches 30 nM or more?
Data returned: Yes

Data request: Quick one: ACGCUGAUUGAUUACAAUCAGCGAAAAGAUACCAGUGGGUAAUCCCACCCUUGGCAGCUUAAACAUGAGCAUCAGCCAUGUGGUA [TheoAS 15 #MS2Right #BothOrNeither #AlternativeMS2]
Data returned: Yes

Data request: Quick one: AACAGACGAGACGAUACCAGUCUCUUAGCGCACAUGAGGAUCACCCAUGUUGGCAAGCUCGACCCUUGGCAGCGUACCUUUGAUC [theeternabot_sameState_MS2_Theo_B_6]
Data returned: No

* * *

Tested on: MS2 coat protein
Experiment: apparent KD of MS2 coat protein; higher = weaker reporter binding
Conditions: Eterna round: R107; input ligand: tryptophan 2.4 mM
Kind request: treat 40 nM as inclusive, so apparent KD of MS2 coat protein at 40 nM or higher is condition met, anything lower is condition not met.

Data request: Could you tell me if the measured apparent KD of MS2 coat protein of ACGAACGAUAGUGAUACCAGACGUACAUGAGGAUCACCCAUGUUUUGGGUAAGGUUAAUAGUCCCUUGGCAGCACUUUAAGUUCG [JR_ExcTheophyB_Sub007] reaches 40 nM or more?
Data returned: condition met

Data request: Quick one: AACAUACAAUUUUAGGUGGAUAUAAGGCGGCGAGGACCGGUACGGCCGCCACUCGCGUACAUGAGGAUCACCCAUGUCUGAAACU [Same State - Tryptophan A (Freestyle 5)]
Data returned: condition not met

Data request: Quick one: CAGACUAGGGCGGCCGCCACUGUGGCUACGGUACAUGAGGAUCACCCAUGUUUGUGGUUGAUCUACAGGACCGGGCCCUGGCACG [Orbera]
Data returned: condition met

Others:
Data request: Could you tell me if the measured apparent KD of MS2 coat protein of AUUUAUUGUCGUGAUACCAGACAUACAUGAGGAUCACCCAUGUUAAGUAACUUUUUUCAGGUCCCUUGGCAGCACUUUUUAAUUA [JR_Nu_SSTheophyB_Sub019] reaches 40 nM or more?
Data returned: condition not met

Data request: Quick one: GCCAUCGGCGGAAGCCGAUGGUAUACGGAAGGAGCGCACGAAAGUGCAGGUAGGUCGCUGAACAUGAGGAUCACCCAUGUAAUAA [#28 Same State - Arginine A]
Data returned: condition not met

Data request: Quick one: UUAUUUAACGGAAGGAGCGCGGAUAAAAUAGUGGGUAAACAUGAGGAUCACCCAUGUAAACCGCAGGUAGGUCGCCGAUAUUUAU [AstrosEXyARgB#5]
Data returned: condition not met

* * *

Test system: MS2 coat protein
Test: apparent KD of MS2 coat protein; designed switch direction (-1 OFF switch, 1 ON switch): -1; higher = weaker reporter binding
Details: Eterna round: R95; input ligand: microRNA oligo, concentration not stated
Just so you know, the groups by apparent KD of MS2 coat protein go like this: range A = under 30 nM, range B = from 30 nM up to 60 nM, range C = 60 nM and over

Worked examples, 3 sequences total:
Data request: For GAAAGGUGAGGAUAUACACUGCGGUGUAGUCCUCAUAAAAGACAUGAGGAUCACCCAUGUAGAAGGCACAUAAA [Rirereis] (puzzle: Exclusion 2) , which apparent KD of MS2 coat protein bin applies?
Data returned: range B

Data request: Quick one: CUGAUGUGAGGAUAUGUGAUCUGCCUUCUAUGUAGAUGAUCACAGAAGGCACAUGAGGAUCACCCAUGUAGAUC [Ex4 - 3 - 26] (puzzle: Exclusion 4)
Data returned: range C

Data request: Quick one: AAUACACAUGAGGAUCACCCAUGUUAGGAUAUGAGCAGACAGACAGACAGACAGACGAUCAGAAGGAAUAGGAA [Excls1-V] (puzzle: Exclusion 1)
Data returned: range A

Others:
Data request: For CUUUUGUGAGGAUAUCAGGUGUGCUAGCGUACUGGUACAUCUGAGAAGGCACAUGAGGAUCACCCAUGUUUCUA [Mat - Exclusion 4 - Mod of JL - D38] (puzzle: Exclusion 4) , which apparent KD of MS2 coat protein bin applies?
Data returned: range C

Data request: Quick one: CUUUUGUGAGGAUAUUAGUAGUUAAUAAAUAAAAUUACUACUGAGAAGGCACAUGAGGAUCACCCAUGUUCCUC [salish99_ex4_r3_051] (puzzle: Exclusion 4)
Data returned: range B

Data request: Quick one: AAAAAACAAGGAUAUACGAAGGAUGGUUAUCUUAAUUUUUGACAUGAGGAUCACCCAUGUAGAAGGUGUUAAAA [JR_Exclusion2_Sub010] (puzzle: Exclusion 2)
Data returned: range B

Data request: Quick one: GUAGUGUGAGGAUAUGGUAAAGAUAAGAUGAUGAAAGAACUCCAGAAGGCACAUGAGGAUCACCCAUGUAGAUU [Mat - Exclusion 4 - Mod of JL - D26] (puzzle: Exclusion 4)
Data returned: range A

Data request: Quick one: CACGGCUUAGGAUAUACAUGAGGAUCACCCAUGUGGGAAAGCCAAGGCGUGGUAAAGUGUAGAAGGAAGAAGGA [Solaedra] (puzzle: Exclusion 3)
Data returned: range A

Data request: Quick one: GUAAAGGUAGGAUAUACGAAGAAAAAGGGUAGAAUAAUAACACAUGAGGAUCACCCAUGUAGAAGGACCAAAGG [Mat - Exclusion 2 - Mod of my Tesla design - D8] (puzzle: Exclusion 2)
Data returned: range A

Data request: Quick one: GACCCUAGGGUCAGACCCACAAGCUUUUUGCUCGUUUUAACAUGAGGAUCACCCAUGUCUAGUGGAUCUGAUCGGGC [Geores] (puzzle: Sensor v3, turn-off variant 2)
Data returned: range C

* * *

Tested on: MS2 coat protein
Assay: apparent KD of MS2 coat protein; designed switch direction (-1 OFF switch, 1 ON switch): -1; higher = weaker reporter binding
Settings: input ligand: FMN 200 uM
Here, each record is paired with measured apparent KD of MS2 coat protein data.
Your answer should be a plain number; it is taken to be in nM.

// solved cases for apparent KD of MS2 coat protein follow
Data request: Entry AUUAAAGACCGAGGAUAUCGAGGAAAUACCCUGCGAGAAGGCGGGUACUCGGACGAUUCGACAUGAGGAUCACCCAUGUGCACA [Atrivece] (Eterna round: R96, puzzle: Exclusion NG 1) has what apparent KD of MS2 coat protein?
Data returned: 26.6

Data request: Quick one: UUUUAACAAGCGAGAUCCUACAUGAGGAUCACCCAUGUAGACCAUGGUUUCCAUGGUCUUUUUGCUCGUCUUGUGUG [jl TITIN mod 6] (Eterna round: R97, puzzle: Sensor, turn-off variant 1)
Data returned: 22.5

Data request: Quick one: CAAACAAGCGAAAGAUCCCACAUGAGGAUCACCCAUGUGCUCGUCUUAUAAGGUACUGUGACGAAAGUCACGGUACC [Sensor 3, v1 - 91 v21] (Eterna round: R97, puzzle: Sensor, turn-off variant 1)
Data returned: 38.4

Data request: Quick one: UUUUUAUAUGAAGGAUAUACUUAACAUGAGGAUCACCCAUGUGGUGUUGUGAGUGAGUGAGUUUAGUAGAAGGUCAAGUAUUUC [JMF's solution 43] (Eterna round: R96, puzzle: Exclusion NG 2)
Data returned: 752

Now turn to the next sequence.
Data request: Entry GUCACAUGGACAUAGGAUCACAUGAGGAUCACCCAUGUGACUAACAAGCUUUUUGCUCGUCUUAUGUCCAUGUGAAA [Stov1/15-A2] (Eterna round: R97, puzzle: Sensor, turn-off variant 1) has what apparent KD of MS2 coat protein?
Data returned: 14.1
